Molecular target: Vascular endothelial growth factor receptor 1 (Homo sapiens)
Test: AlphaScreen Assay
METRIC: IC50

State the recorded IC50 for this entry: COc1cc2c(Nc3cc(Cl)c(Cl)cc3F)ncnc2cc1OC[C@H]1C[C@@H]2CN(C)C[C@@H]2C1
< 50 nM

---

Target: Ephrin type-A receptor 2 (Homo sapiens)
Test: AlphaScreen Assay
METRIC: IC50

State the recorded IC50 for this entry: COc1cc2c(Nc3ccc(Cl)c(Cl)c3)ncnc2cc1OC[C@H]1CN2CCC[C@@H]2CO1
< 50 nM

---

Molecular target: Vascular endothelial growth factor receptor 2 (Homo sapiens, UniProt P35968)
Sequence (P35968 whole entry): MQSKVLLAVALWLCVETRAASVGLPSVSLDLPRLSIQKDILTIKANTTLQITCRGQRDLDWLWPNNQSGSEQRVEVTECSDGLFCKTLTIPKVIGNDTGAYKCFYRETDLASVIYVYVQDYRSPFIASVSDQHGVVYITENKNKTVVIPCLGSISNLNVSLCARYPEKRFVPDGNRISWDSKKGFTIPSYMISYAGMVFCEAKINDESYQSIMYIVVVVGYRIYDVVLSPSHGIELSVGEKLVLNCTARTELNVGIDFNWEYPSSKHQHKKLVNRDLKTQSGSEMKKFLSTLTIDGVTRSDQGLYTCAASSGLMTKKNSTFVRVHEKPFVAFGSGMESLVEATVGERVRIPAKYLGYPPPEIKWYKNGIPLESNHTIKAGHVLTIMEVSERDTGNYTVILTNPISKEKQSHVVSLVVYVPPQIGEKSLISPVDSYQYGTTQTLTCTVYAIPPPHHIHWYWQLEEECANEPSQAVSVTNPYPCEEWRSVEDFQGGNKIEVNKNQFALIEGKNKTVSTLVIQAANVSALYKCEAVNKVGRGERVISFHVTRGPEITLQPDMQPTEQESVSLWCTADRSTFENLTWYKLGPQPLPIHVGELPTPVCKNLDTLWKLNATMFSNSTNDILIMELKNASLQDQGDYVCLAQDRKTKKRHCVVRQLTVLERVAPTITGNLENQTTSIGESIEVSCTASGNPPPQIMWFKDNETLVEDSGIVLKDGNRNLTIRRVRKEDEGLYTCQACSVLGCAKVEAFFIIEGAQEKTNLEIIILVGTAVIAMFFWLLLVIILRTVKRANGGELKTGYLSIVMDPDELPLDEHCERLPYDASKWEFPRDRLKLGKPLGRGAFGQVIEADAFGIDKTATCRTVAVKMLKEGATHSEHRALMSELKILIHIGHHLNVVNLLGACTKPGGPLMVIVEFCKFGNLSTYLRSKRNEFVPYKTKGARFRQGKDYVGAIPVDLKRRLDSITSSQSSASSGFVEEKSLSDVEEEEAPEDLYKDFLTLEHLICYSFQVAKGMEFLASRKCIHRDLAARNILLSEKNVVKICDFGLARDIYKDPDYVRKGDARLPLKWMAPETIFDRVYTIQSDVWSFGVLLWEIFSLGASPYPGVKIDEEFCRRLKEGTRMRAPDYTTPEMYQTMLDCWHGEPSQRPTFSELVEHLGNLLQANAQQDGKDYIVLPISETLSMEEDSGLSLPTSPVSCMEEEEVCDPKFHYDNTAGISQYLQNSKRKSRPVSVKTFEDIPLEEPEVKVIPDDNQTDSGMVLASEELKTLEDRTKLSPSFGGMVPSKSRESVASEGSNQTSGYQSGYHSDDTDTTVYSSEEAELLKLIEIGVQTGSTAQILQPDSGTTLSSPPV
Assay: AlphaScreen Assay
METRIC: IC50

GET /values?readout=IC50&system=Vascular endothelial growth factor receptor 2 (Homo sapiens, UniProt P35968)&item= COc1cc2c(Nc3ccc(Br)c(Cl)c3Cl)ncnc2cc1O[C@H]1CO[C@H]2[C@@H]1OC[C@@H]2OC
> 20000 nM

---

Target: Receptor tyrosine-protein kinase erbB-2 (Homo sapiens, UniProt P04626)
Sequence (P04626 whole entry): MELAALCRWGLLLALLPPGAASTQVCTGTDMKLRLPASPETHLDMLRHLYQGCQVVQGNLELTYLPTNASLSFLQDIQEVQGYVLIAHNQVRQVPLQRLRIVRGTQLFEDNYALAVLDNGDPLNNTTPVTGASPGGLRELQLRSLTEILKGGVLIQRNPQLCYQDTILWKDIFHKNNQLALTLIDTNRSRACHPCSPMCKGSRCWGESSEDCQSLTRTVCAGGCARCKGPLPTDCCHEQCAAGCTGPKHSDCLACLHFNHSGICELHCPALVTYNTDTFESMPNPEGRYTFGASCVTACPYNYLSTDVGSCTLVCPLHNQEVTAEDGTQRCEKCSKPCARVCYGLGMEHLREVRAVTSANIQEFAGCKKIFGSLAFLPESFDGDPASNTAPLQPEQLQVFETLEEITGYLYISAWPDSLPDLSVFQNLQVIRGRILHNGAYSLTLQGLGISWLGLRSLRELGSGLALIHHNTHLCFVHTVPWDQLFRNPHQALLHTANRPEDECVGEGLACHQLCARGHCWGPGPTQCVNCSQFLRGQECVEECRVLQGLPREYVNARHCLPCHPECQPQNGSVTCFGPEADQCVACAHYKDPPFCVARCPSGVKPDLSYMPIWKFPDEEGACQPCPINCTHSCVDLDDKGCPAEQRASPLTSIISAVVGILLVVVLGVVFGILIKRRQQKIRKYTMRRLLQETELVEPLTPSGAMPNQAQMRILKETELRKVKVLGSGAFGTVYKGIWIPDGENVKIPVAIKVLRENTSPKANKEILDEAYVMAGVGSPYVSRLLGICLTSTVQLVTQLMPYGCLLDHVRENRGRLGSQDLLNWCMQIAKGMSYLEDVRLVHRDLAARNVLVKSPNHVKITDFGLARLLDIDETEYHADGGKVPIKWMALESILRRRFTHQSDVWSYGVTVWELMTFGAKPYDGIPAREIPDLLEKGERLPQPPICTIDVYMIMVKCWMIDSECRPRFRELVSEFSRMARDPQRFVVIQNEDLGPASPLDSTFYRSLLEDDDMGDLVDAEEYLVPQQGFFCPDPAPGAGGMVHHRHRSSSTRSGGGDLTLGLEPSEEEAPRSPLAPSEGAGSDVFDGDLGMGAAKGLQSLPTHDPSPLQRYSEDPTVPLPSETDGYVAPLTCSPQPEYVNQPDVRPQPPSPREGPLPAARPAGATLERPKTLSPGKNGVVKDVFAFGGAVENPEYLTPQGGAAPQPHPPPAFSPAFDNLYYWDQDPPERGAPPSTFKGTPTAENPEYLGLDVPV
Experiment: AlphaScreen Assay
METRIC: IC50

GET /values?readout=IC50&system=Receptor tyrosine-protein kinase erbB-2 (Homo sapiens, UniProt P04626)&item= COc1cc2c(Nc3ccc(Cl)c(Cl)c3F)ncnc2cc1OC[C@@H]1C[C@@H]2CN(C(C)C)C[C@@H]2C1
< 50 nM

---

Biological target: Ephrin type-A receptor 2 (Homo sapiens, UniProt P29317)
Sequence (P29317 whole entry): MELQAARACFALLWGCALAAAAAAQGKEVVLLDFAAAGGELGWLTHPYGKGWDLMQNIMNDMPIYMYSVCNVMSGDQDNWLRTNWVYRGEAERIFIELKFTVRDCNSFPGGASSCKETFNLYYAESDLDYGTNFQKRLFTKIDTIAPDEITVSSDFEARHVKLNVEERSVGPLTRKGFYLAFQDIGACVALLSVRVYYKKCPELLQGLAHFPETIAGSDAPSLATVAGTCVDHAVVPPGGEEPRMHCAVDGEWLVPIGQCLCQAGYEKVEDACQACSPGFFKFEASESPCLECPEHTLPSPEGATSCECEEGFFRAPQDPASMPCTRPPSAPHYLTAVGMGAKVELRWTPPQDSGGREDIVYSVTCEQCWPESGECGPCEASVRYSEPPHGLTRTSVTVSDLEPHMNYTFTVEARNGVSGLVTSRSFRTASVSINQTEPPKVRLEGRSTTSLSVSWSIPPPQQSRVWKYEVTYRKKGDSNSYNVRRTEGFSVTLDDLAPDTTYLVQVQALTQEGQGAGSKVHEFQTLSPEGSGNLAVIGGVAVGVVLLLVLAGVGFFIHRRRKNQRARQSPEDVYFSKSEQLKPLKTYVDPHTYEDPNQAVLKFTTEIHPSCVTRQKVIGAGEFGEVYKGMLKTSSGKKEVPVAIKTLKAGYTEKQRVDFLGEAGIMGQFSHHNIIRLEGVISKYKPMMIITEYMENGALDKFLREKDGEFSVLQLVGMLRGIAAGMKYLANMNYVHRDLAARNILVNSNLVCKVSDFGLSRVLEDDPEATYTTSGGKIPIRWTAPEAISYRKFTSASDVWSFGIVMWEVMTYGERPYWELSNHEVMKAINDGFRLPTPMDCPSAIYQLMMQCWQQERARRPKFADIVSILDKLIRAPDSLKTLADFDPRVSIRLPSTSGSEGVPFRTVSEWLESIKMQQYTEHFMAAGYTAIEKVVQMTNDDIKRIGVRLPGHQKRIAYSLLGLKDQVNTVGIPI
Test: AlphaScreen Assay
METRIC: IC50

State the recorded IC50 for this entry: COc1cc2c(Nc3ccc(Br)c(Cl)c3F)ncnc2cc1OC[C@H]1CN2CCOCC2CO1 (stereo partly drawn)
< 50 nM

---

Target: Vascular endothelial growth factor receptor 2 (Homo sapiens)
Test: AlphaScreen Assay
METRIC: IC50

State the recorded IC50 for this entry: COc1cc2c(Nc3cc(Cl)c(Br)cc3F)ncnc2cc1OC[C@H]1CN2CCOCC2CO1 (some centres not stated)
< 50 nM

---

Target: UniProtKB P04626
Test: AlphaScreen Assay
METRIC: IC50

State the recorded IC50 for this entry: COc1cc2c(Nc3ccc(Cl)c(Cl)c3)ncnc2cc1OC[C@H]1C[C@@H]2CN(C)C[C@@H]2C1
< 50 nM

---

Molecular target: Ephrin type-B receptor 4 (Homo sapiens, UniProt P54760)
Sequence (P54760 whole entry): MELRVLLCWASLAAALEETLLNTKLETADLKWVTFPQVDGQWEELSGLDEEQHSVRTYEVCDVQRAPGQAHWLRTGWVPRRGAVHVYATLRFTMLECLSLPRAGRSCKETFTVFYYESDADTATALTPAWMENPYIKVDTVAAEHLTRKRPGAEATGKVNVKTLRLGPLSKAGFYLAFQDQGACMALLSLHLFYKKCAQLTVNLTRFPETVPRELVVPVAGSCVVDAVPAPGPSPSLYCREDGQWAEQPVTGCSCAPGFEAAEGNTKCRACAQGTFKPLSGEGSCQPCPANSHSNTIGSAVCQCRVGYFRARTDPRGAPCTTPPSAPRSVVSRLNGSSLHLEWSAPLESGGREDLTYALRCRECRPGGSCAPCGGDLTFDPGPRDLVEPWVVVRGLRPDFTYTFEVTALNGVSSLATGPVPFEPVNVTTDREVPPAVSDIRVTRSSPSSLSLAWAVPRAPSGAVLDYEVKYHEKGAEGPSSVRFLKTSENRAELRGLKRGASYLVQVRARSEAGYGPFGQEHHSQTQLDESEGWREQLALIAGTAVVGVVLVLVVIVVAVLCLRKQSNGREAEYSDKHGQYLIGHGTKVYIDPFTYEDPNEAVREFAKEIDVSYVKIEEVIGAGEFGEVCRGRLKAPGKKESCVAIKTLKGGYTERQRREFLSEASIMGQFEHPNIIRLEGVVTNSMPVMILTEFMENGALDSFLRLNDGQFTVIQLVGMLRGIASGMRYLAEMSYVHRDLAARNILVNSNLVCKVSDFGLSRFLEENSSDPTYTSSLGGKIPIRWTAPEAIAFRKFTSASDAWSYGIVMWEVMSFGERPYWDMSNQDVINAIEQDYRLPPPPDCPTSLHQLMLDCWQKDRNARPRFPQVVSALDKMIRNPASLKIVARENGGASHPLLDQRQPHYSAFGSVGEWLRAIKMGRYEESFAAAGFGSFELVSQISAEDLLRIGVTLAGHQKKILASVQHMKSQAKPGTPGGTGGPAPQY
Assay: AlphaScreen Assay
METRIC: IC50

State the recorded IC50 for this entry: COc1cc2c(Nc3ccc(F)c(Cl)c3F)ncnc2cc1OC[C@H]1CN2CCOCC2CO1 (stereo partly drawn)
< 0.05 µM

---

Target: Receptor tyrosine-protein kinase erbB-2 (Homo sapiens)
Assay: AlphaScreen Assay
METRIC: IC50

Examples from the recorded data:
COc1cc2c(Nc3cc(Cl)c(Br)cc3F)ncnc2cc1OC[C@H]1C[C@@H]2CN(C)C[C@@H]2C1
< 50 nM
COc1cc2c(Nc3cc(Cl)c(Cl)cc3F)ncnc2cc1OC[C@H]1C[C@@H]2CN(C)C[C@@H]2C1
< 50 nM

# input for lookup
State the recorded IC50 for this entry: COc1cc2c(Nc3ccc(Cl)c(Cl)c3)ncnc2cc1OC[C@@H]1CN2CCC[C@H]2CO1
< 50 nM

---

Target: Ephrin type-A receptor 2 (Homo sapiens)
Test: AlphaScreen Assay
METRIC: IC50

State the recorded IC50 for this entry: COc1cc2c(Nc3cc(Cl)c(Br)cc3F)ncnc2cc1OC[C@@H]1CN2CCOCC2CO1 (stereo partly drawn) [US9796704, Entry 28]
< 50 nM
